Test Details: refractive index (Na D-line) (dimensionless)
Experimental Conditions: 308.15 K; 101.33 kPa; Liquid; Standard Abbe refractometry
Numbers after ± are expanded uncertainties.
Result Type: refractive index

Consider the following illustrative entries.
| Compound | refractive index |
| --- | --- |
| CCOC(=O)CC(C)=O [ethyl 3-oxobutanoate] | 1.41246 ± 0.00035 |
| CCCC(=O)OCCC(C)C [3-methylbutyl butanoate] | 1.40374 ± 0.00034 |
| CC(=O)OCCC(C)C [3-methylbutyl ethanoate] | 1.39365 ± 0.00034 |
| CCOC(=O)c1ccccc1O [ethyl 2-hydroxybenzoate] | 1.51573 ± 0.00032 |
| CCOC(=O)c1ccccc1 [ethyl benzoate] | 1.49863 ± 0.00032 |

Then this compound:
q: Please indicate refractive index recorded for COC(=O)c1ccccc1 [methyl benzoate]
a: 1.50993 ± 0.00035
